Attribution: ChEMBL document CHEMBL1125763

test system: WiDr; assay: In vitro inhibition of WiDr colon cancer cell line; assay type: functional, cell-based; details: Homo sapiens
pIC50: −log10 of the molar value.
The entries below are paired with their reported pIC50.
measurement-type: pIC50

1) CC1=C(N(C)C)C(=O)c2nc3n(c2C1=O)CCC3OC(N)=O (stereo not given); 4.89
2) CC(=O)NC1=C(C)C(=O)c2c(nc3n2CCC3OC(N)=O)C1=O (stereo not given); 4.80
3) CC(=O)OC1CCn2c1nc1c2C(=O)C(C)=C(N2CC2)C1=O (stereo not given); 8.00
4) CC(=O)OC1CCn2c1nc1c2C(=O)C(C)=C(NC(=O)CCl)C1=N (stereo not given); 6.55
5) CC1=CC(=O)c2nc3n(c2C1=O)CCC3OC(N)=O (stereo not given); 5.00
6) CC1=C(N2CC2)C(=O)c2nc3n(c2C1=O)CCC3; 7.82
7) CC(=O)NC1=C(C)C(=O)c2c(nc3n2CCC3OC(C)=O)C1=O (stereo not given); 5.22
8) CC(=O)OC1CCn2c1nc1c2C(=O)C(C)=C(N(C)C)C1=O (stereo not given); 5.00
9) CO[C@@]12[C@H](COC(N)=O)C3=C(C(=O)C(C)=C(N)C3=O)N1C[C@@H]1N[C@@H]12 [MITOMYCIN]; 8.00
10) CC1=C(N2CC2)C(=O)c2nc3n(c2C1=O)CCC3OC(N)=O (stereo not given); 7.00
11) CC(=O)OC1CCn2c1nc1c2C(=O)C(C)=CC1=O (stereo not given); 6.52
12) CC(=O)NC1=C(C)C(=O)c2c(nc3n2CCC3)C1=O; 6.30
13) CC(=O)NC1=C(C)C(=O)c2c(nc3n2CCC3OC(C)=O)C1=N (stereo not given); 6.82
14) CC1=C(N(C)C)C(=O)c2nc3n(c2C1=O)CCC3; 4.89
15) CC(=O)NC1=C(C)C(=O)c2c(nc3n2CCC3)C1=N; 5.00
